biological target: human glucagon receptor (human) (UniProt P47871); assay: cell-based or functional assay
Sequence (P47871 26-477): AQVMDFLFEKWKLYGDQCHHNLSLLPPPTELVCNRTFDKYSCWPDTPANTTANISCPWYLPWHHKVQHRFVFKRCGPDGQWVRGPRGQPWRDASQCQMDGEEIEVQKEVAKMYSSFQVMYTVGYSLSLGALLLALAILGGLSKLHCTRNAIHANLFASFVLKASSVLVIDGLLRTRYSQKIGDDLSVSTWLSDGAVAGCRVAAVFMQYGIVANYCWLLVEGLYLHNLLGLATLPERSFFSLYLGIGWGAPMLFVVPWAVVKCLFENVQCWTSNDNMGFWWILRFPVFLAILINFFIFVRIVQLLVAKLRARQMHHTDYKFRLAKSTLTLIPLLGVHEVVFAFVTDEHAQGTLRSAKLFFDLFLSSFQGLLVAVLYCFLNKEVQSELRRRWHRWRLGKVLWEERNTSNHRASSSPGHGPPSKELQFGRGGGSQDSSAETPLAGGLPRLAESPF
Non-standard residues stand in square brackets, D forms with d. No end group written: not given here. Phe(4-CN) = N#Cc1ccc(C[C@H](N)C(=O)O)cc1; αMePhe(2-F) = C[C@](N)(Cc1ccccc1F)C(=O)O; Aib = CC(C)(N)C(=O)O
Consider the following binders and their measured log10 cAMP Rel EC50, nM (1% HSA) readings.
# values: log10(cAMP Rel EC50, nM (1% HSA)), units nM

// worked examples, log10 cAMP Rel EC50, nM (1% HSA) included
{"Binder": "Y[Aib]QGT[αMePhe(2-F)]TSD[Phe(4-CN)]SILLDKQAQKAFIEYLLEGGPSSGEPPPSAG-NH2 (not fully specified (residue 20)) [Example 350]", "log10 cAMP Rel EC50, nM (1% HSA)": 3.58}
{"Binder": "YXQGTFTSDXSXXLDXKAQXQFIEXLIEGGPSSGAPPPSGSEE (non-natural residues; (γGlu)2-C18 diacid on Lys; C-terminal amide; synthetic construct; SITE 2: note = 2-Aminoisobutyric Acid; SITE 10: note = 3-(4-Pyridyl)-L-alanine; SITE 12: note = L-ornithine; SITE 13: note = alpha-methyl-leucine; SITE 16: note = L-ornithine; SITE 17: note = Lysine is chemically modified through conjugation of the epsilon-amino group of the Lys) [Example 972]", "log10 cAMP Rel EC50, nM (1% HSA)": 2.82}
{"Binder": "YXQGTFTSDXSQXLDKKAQXAFIEYLIAGGPSSGAPPPEGS (non-natural residues, C18 diacid acylation; synthetic construct; SITE 2: note = 2-Aminoisobutyric Acid; SITE 10: note = 3-(4-Pyridyl)-L-alanine; SITE 13: note = alpha-methyl-leucine; SITE 17: note = Lysine is chemically modified through conjugation of the epsilon-amino group of the Lysine side chain with (gamma-Glu)2-CO-(CH2)16-CO2H; SITE 20:) [Example 969]", "log10 cAMP Rel EC50, nM (1% HSA)": 2.82}
{"Binder": "YXQGTFTSDXSXXLDXKAQXAFIEYLIAGGPSSGAPPPSESE (Aib, 4Pal, Orn, αMeL, Me4Pal; K (γGlu)2-C18 diacid; amide; synthetic construct; SITE 2: note = 2-Aminoisobutyric Acid; SITE 10: note = 3-(4-Pyridyl)-L-alanine; SITE 12: note = L-ornithine; SITE 13: note = alpha-methyl-leucine; SITE 16: note = L-ornithine; SITE 17: note = Lysine is chemically modified through conjugation of the epsilon-amino group of the Lys) [Example 1012]", "log10 cAMP Rel EC50, nM (1% HSA)": 2.73}
{"Binder": "YXQGTXTSDYSILLDKKAQXAFIEYLEEGGPSSGAPPPE (not fully specified; synthetic construct; SITE 2: note = 2-Aminoisobutyric Acid; SITE 6: note = alpha-methyl-2-fluoro-L-phenylalanine; SITE 17: note = Lysine is chemically modified through conjugation of the epsilon-amino group of the Lysine side chain with (2-[2-(2-Amino-ethoxy)-ethoxy]-acetyl)-(gamma-Glu)-CO-(CH2) 16-) [Example 388]", "log10 cAMP Rel EC50, nM (1% HSA)": 2.78}
{"Binder": "YXQGTFTSDFSQXLDKKAQXAFIEYLIEXGESSGAPPPSGE (acylated; synthetic construct; SITE 2: note = 2-Aminoisobutyric Acid; SITE 13: note = alpha-methyl-leucine; SITE 17: note = Lysine is chemically modified through conjugation of the epsilon-amino group of the Lysine side chain with (2-[2-(2-Amino-ethoxy)-ethoxy]-acetyl)-(gamma-Glu)-CO-(CH2) 16-CO2H; SITE 20: n) [Example 233]", "log10 cAMP Rel EC50, nM (1% HSA)": 2.66}

Query block: GET /values?readout=log10 cAMP Rel EC50, nM (1% HSA)&item= YXQGTXTSDXXIXLDXKAQXXFIEXLLEGGPSSGEPPPE (synthetic construct; SITE 2: note = 2-Aminoisobutyric Acid; SITE 6: note = alpha-methyl-2-fluoro-L-phenylalanine; SITE 10: note = 3-(4-Pyridyl)-L-alanine; SITE 11: note = alpha-methyl-L-serine; SITE 13: note = alpha-methyl-leucine; SITE 16: note = L-ornithine; SITE 17: note = Lysine is chemically mo) [Example 377]
Result block: 2.21

Query block: GET /values?readout=log10 cAMP Rel EC50, nM (1% HSA)&item= YXQGTXTSDYXIXLDXKAQXXFIEXLEEGGPSSGEPPPEEG (synthetic construct; SITE 2: note = 2-Aminoisobutyric Acid; SITE 6: note = alpha-methyl-2-fluoro-L-phenylalanine; SITE 11: note = alpha-methyl-L-serine; SITE 13: note = alpha-methyl-leucine; SITE 16: note = L-ornithine; SITE 17: note = Lysine is chemically modified through conjugation of the epsilon) [Example 403]
Result block: 2.72

Query block: GET /values?readout=log10 cAMP Rel EC50, nM (1% HSA)&item= YXQGTXTSDYSIXLDXKAQXAFIEYLEEGGPSSGAPPPE (not fully specified; synthetic construct; SITE 2: note = 2-Aminoisobutyric Acid; SITE 6: note = alpha-methyl-L-phenylalanine; SITE 13: note = alpha-methyl-leucine; SITE 16: note = L-ornithine; SITE 17: note = Lysine is chemically modified through conjugation of the epsilon-amino group of the Lysine side chain with (2-[2)) [Example 397]
Result block: 3.05

Query block: GET /values?readout=log10 cAMP Rel EC50, nM (1% HSA)&item= YXQGTXTSDXXIXLDXKAAXEFIEXLIEGGPSSGAPPPSGGGE (synthetic construct; SITE 2: note = 2-Aminoisobutyric Acid; SITE 6: note = alpha-methyl-2-fluoro-L-phenylalanine; SITE 10: note = 3-(4-Pyridyl)-L-alanine; SITE 11: note = alpha-methyl-L-serine; SITE 13: note = alpha-methyl-leucine; SITE 16: note = L-ornithine; SITE 17: note = Lysine is chemically mo) [Example 747]
Result block: 2.23

Query block: GET /values?readout=log10 cAMP Rel EC50, nM (1% HSA)&item= YXQGTXTSDYSILLDKKAQXAFIEYLEEGGPSSGAPPPS (not fully specified; synthetic construct; SITE 2: note = 2-Aminoisobutyric Acid; SITE 6: note = alpha-methyl-2-fluoro-L-phenylalanine; SITE 17: note = Lysine is chemically modified through conjugation of the epsilon-amino group of the Lysine side chain with (2-[2-(2-Amino-ethoxy)-ethoxy]-acetyl)-(gamma-Glu)-CO-(CH2) 16-) [Example 387]
Result block: 2.26

Query block: GET /values?readout=log10 cAMP Rel EC50, nM (1% HSA)&item= YXQGTXTSDYSILLDKKAQXAFIEFLEEGGPSSGAPPPSEG (not fully specified; synthetic construct; SITE 2: note = 2-Aminoisobutyric Acid; SITE 6: note = alpha-methyl-2-fluoro-L-phenylalanine; SITE 17: note = Lysine is chemically modified through conjugation of the epsilon-amino group of the Lysine side chain with (2-[2-(2-Amino-ethoxy)-ethoxy]-acetyl)-(gamma-Glu)-CO-(CH2) 16-) [Example 412]
Result block: 2.67
